The reported numbers originate from patent US11814435B2.

Would you mind telling me the reported kd (1/s) cyBCMA @37° C. of each entry?
Target: cyBCMA
Experiment: Kinetics and affinity of cyBCMA/human IgG interactions by SPR (Bio-Rad Proteon XPR36)
Type: binding, cynomolgus
Conditions: 37° C.
Give bare numbers, in s⁻¹.

# annotated cases, reported kd (1/s) cyBCMA @37° C. shown
{"MOLECULE": "L3.PY/L1.FF/H3.YA: anti-BCMA antibody (antibody, V domains shown) VH: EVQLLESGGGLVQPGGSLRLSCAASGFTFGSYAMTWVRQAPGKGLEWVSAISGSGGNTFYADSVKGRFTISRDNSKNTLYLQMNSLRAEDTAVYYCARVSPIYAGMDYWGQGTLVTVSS VL: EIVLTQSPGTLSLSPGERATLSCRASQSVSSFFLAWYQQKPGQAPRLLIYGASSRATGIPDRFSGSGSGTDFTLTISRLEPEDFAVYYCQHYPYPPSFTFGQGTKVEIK", "kd (1/s) cyBCMA @37° C. [s⁻¹]": 0.00416}
{"MOLECULE": "L3.PY/L1.FF/H2.HA: anti-BCMA antibody (antibody, V domains shown) VH: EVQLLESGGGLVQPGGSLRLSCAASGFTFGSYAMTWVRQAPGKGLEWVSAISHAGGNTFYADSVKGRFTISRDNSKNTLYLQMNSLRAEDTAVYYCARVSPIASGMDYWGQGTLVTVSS VL: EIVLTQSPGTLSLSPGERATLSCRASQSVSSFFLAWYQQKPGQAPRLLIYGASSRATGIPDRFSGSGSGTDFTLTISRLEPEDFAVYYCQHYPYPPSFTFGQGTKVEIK", "kd (1/s) cyBCMA @37° C. [s⁻¹]": 0.00417}
{"MOLECULE": "L3.PY/L3.KF/H2.QL: anti-BCMA antibody (antibody, V domains shown) VH: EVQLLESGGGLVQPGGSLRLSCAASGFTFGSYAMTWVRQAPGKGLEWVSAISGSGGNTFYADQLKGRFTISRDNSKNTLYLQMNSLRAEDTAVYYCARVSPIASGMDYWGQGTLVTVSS VL: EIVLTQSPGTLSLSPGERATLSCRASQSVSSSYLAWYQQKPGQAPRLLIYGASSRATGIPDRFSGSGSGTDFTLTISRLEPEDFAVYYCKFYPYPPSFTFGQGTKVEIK", "kd (1/s) cyBCMA @37° C. [s⁻¹]": 0.0031}
{"MOLECULE": "L3.PY/L1.PS/H2.DY: anti-BCMA antibody (antibody, V domains shown) VH: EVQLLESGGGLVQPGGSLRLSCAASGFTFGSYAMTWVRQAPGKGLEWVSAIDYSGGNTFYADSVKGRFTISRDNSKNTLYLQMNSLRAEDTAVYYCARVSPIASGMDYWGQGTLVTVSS VL: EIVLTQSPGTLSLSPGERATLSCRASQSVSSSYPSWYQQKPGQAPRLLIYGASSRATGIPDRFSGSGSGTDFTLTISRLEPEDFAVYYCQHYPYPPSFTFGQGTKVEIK", "kd (1/s) cyBCMA @37° C. [s⁻¹]": 0.00378}

Summary for this molecule, L3.PY/H2.HA: anti-BCMA antibody (antibody, V domains shown) VH: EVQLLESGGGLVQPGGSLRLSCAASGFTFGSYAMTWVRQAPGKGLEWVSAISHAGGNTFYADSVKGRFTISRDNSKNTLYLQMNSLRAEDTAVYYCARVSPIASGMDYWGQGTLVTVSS VL: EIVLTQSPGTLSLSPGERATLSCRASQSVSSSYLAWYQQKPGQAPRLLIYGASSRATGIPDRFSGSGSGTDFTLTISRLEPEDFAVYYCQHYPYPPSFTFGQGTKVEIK : kd (1/s) cyBCMA @37° C. is 0.00755
